system: SF-268; test: NCI tumour cell line growth inhibition, 48 h
Active and inactive are the calls of the source. Cut-off read from the data, not from the text of the source: active = GI50 up to about 1.1 µM and inactive = higher.
Select the correct class. Options are 1.0 for active, 0.0 for inactive and nothing else.

COMPOUND	TESTED_ON	CATEGORY
CS(=O)(=O)N(CC(=O)O)Cc1ccccc1	SF-268	0.0
C=C1CCCC(C)(C)[C@H]1C/C=C1\CCOC1=O	SF-268	0.0
CO[C@@H]1C[C@H](OC(N)=O)[C@@H]2C=C[C@@H]3/C=C(C)/C=C/[C@@H](C)[C@H]([C@H](C)[C@H](O)[C@@H](C)NC(C)=O)OC(=O)/C=C/C=C(C)\C=C\[C@]3(C)[C@@H]2C1	SF-268	1.0
COC(=O)C1Cc2c([nH]c3ccccc23)C(C2CCCCC2)N1 (stereo not given)	SF-268	0.0

// next entry
Record lookup: outcome of this test for "Cc1ccc(S(=O)(=O)N2C[C@](O)(c3ccccc3)[C@H]2C)cc1" ?
0.0

* * *

Listed here: items and their measured GI50.
tested on: MDA-MB-231; assay: NCI tumour cell line growth inhibition, 48 h
Calls of active or inactive are those of the source. Rule as the data show it: active = GI50 up to about 1.1 µM and inactive = higher.

Guide cases for GI50, answers given:
COMPOUND	DATA_VALUE
CN1C(=O)[C@@H]2N(CSC2(C)C)C1=S	> 100 µM (inactive)
COC(=O)[C@@H](COC(=O)/C=C/c1ccc(OC(C)=O)c(OC(C)=O)c1)NC(=O)/C=C/c1ccc(OC(C)=O)c(OC(C)=O)c1	22.6 µM (inactive)
CS(=O)(=O)N(CC(=O)O)Cc1ccccc1	> 100 µM (inactive)

Form field: reported GI50 of "O=C(/C=C/c1ccc(OCc2ccccc2)cc1)NCc1ccc(C(=O)NCCc2c[nH]c3ccccc23)cc1"
13.8 µM (inactive)

Form field: reported GI50 of CCCCCCCCCCCCCCCCCCN(C)C(COC)COP(=O)([O-])OCC[N+](C)(C)C (stereo not drawn)
5.73 µM (inactive)

Form field: reported GI50 of "CCOC(=O)c1[nH]cc(C)c1-c1cccn1-c1ccc(Cl)cc1[N+](=O)[O-]"
8.24 µM (inactive)

Form field: reported GI50 of "C1=N\CCOCC/N=C\c2ccc(cc2)OCc2cccc(n2)COc2ccc/1cc2"
54.6 µM (inactive)

Form field: reported GI50 of CC1(C)C2CCC1C(=O)C(C=O)C2 (stereo not drawn)
> 100 µM (inactive)

Form field: reported GI50 of "COCCCNc1nc(N)c(C#N)c(C#N)c1C#N"
> 10 µM (inactive)

Form field: reported GI50 of O=CC12c3ccccc3C(c3ccccc31)C1C(=O)NC(=O)C12 (stereo not drawn)
> 100 µM (inactive)

* * *

Listed here: items and their measured GI50.
tested on: HCC 2998; experiment: NCI tumour cell line growth inhibition, 48 h
Active and inactive are the calls of the source. Cut-off read from the data, not from the text of the source: active = GI50 up to about 1.1 µM and inactive = higher.

Guide cases for GI50, answers given:
COMPOUND	DATA_VALUE
CC1CCOc2ccc(cc2)/C=N\c2ccc(cc2)-c2ccc(cc2)/N=C\c2ccc(cc2)OCC1	> 100 µM (inactive)
C=CCN1COc2c(cc3c4c(cccc24)C(=O)O3)C1	> 100 µM (inactive)
O=C(/C=C/c1ccc(OCc2ccccc2)cc1)NCc1ccc(C(=O)NCCc2c[nH]c3ccccc23)cc1	43.2 µM (inactive)
C[C@]12CCC(=O)C=C1CC[C@@H]1[C@@H]2C(=O)C[C@@]2(C)[C@H]1CC[C@]2(O)C(=O)CO	> 100 µM (inactive)
C[C@@H](c1ccccc1)N1CN(C(=O)OCc2ccccc2)C(CO)C1=O (stereo not given in full)	> 100 µM (inactive)

Form field: reported GI50 of "COC(=O)/C=C(/C(=O)OC)c1c(C)c(C)c2c(C)cc(C)cc(C)c1-2"
21.3 µM (inactive)

Form field: reported GI50 of "CC(=O)/C=C1\CC(=O)Nc2ccccc2N1"
> 100 µM (inactive)

Form field: reported GI50 of "CON(C)c1nc(N(C)OC)nc(N(C)OC)n1"
> 10 µM (inactive)

Form field: reported GI50 of CC(C)CSCC1OC(n2cnc3c(N)nccc32)C(O)C1O (stereo not given)
27.9 µM (inactive)

Form field: reported GI50 of CC1C2(C)OC(=N)C(C#N)(C(c3ccco3)O2)C1(C#N)C#N (stereo not given)
26.9 µM (inactive)

* * *

system: SK-MEL-5; test: NCI tumour cell line growth inhibition, 48 h
Calls of active or inactive are those of the source. No stated cut-off is given here; in the data, active = GI50 up to about 1.1 µM and inactive = higher.
Select the correct class. Options are class 1 = active, class 0 = inactive and nothing else.

COMPOUND	CATEGORY
CN1C(=O)[C@@H]2N(CSC2(C)C)C1=S	class 0
Cc1ccc(-n2nncc2[Si](C)(C)C)s1	class 0
CCOC(=O)/C(C#N)=C1\c2c([nH]c(=S)[nH]c2=O)Oc2ccc3ccccc3c21	class 0

Record lookup: outcome of this test for CC(/C=C/C=C\C=C\C=C(/C)C(=O)NC(C)CO)=C\C(C)C(O)/C(C)=C/C(C)CCc1ccccc1 (stereo not given) ?
class 1

Record lookup: outcome of this test for CCN(CC)CC1CCCCN1CC(=O)N1c2ccccc2NC(=O)CC1C (stereo not given) ?
class 0

* * *

system: OVCAR-8; experiment: NCI tumour cell line growth inhibition, 48 h
The source made the active and inactive calls. Cut-off read from the data, not from the text of the source: active = GI50 up to about 1.1 µM and inactive = higher.
Listed here: items and their measured GI50.

Guide cases for GI50, answers given:
COMPOUND	ENDPOINT	DATA_VALUE
O=S(=O)(c1ccccc1)c1ccc(/N=N/O)nc1	GI50	> 100 µM (inactive)
Cc1[nH]c(=O)c2oc3cc4ccccc4cc3c2c1C(=O)O	GI50	> 10 µM (inactive)
CC1=C2C(=O)c3ccccc3C(=O)[C@H]2C[C@@H](N2CCCCCC2=O)O1	GI50	21.5 µM (inactive)
CCOC(=O)C(NC(=O)c1ccccc1)(c1ccc(S(=O)(=O)Nc2onc(C)c2C)cc1)C(F)(F)F (stereo not given)	GI50	> 100 µM (inactive)

Now consider the entry below.
Form field: reported GI50 of CCN(CC)CC1CCCCN1CC(=O)N1c2ccccc2NC(=O)CC1C (stereo not given)
> 100 µM (inactive)

* * *

tested on: KM12; test: NCI tumour cell line growth inhibition, 48 h
Activity calls are given as the source filed them. Rule as the data show it: active = GI50 up to about 1.1 µM and inactive = higher.
ENDPOINT: GI50

Guide cases for GI50, answers given:
MOLECULE	DATA_VALUE
COC(=O)C(CCS(=O)(=O)CC(=O)C(=O)Nc1cccc(C(C)=O)c1)C(=O)OC	> 100 µM (inactive)
CCN(CC)CCNC(=O)c1nn(-c2ccc(Cl)cc2)c2c1CCc1cc(OC)ccc1-2	6.53 µM (inactive)
C[Si](C)(C)c1ccc(-c2sc(-c3ccc([Si](C)(C)C)s3)c3c2C[Si]2(C3)Cc3c(-c4ccc([Si](C)(C)C)s4)sc(-c4ccc([Si](C)(C)C)s4)c3C2)s1	> 100 µM (inactive)
C[C@H]1CC[P+](Cc2ccccc2)(c2ccccc2)C1 (stereo not given in full)	> 100 µM (inactive)

Now consider the entry below.
Form field: reported GI50 of "CC(C)(C)OC(=O)N1CCc2[nH][nH]c(=O)c2C1"
> 100 µM (inactive)

* * *

Listed here: items and their measured GI50.
test system: OVCAR-8; experiment: NCI tumour cell line growth inhibition, 48 h
Activity calls are given as the source filed them. No stated cut-off is given here; in the data, active = GI50 up to about 1.1 µM and inactive = higher.

COMPOUND	DATA_VALUE
Cc1c2ccncc2c(C)c2c1sc1ccccc12	8.22 µM (inactive)
CC(C)=CCC/C(C)=C\CC/C(C)=C/CO	21.6 µM (inactive)
CC(=O)c1cn(-c2ccc(Cl)cc2)c(=O)c2c(N)n[nH]c12	> 100 µM (inactive)
CC1(C)C2CCC1C(=O)C(C=O)C2 (stereo unspecified)	> 100 µM (inactive)
CC[C@@H]1OC2(C)CC(S(=O)(=O)c3ccccc3O)CC1O2 (stereo partly specified)	> 100 µM (inactive)

Form field: reported GI50 of "O=[N+]([O-])C(=C(Nc1cccc2cccnc12)Nc1cccc2cccnc12)C(Cl)=C(Cl)Cl"
33.2 µM (inactive)

* * *

Listed here: items and their measured GI50.
system: 786-0; assay: NCI tumour cell line growth inhibition, 48 h
Calls of active or inactive are those of the source. No stated cut-off is given here; in the data, active = GI50 up to about 1.1 µM and inactive = higher. Residues, ends and D or L forms follow the SMILES beside them. *: point of attachment. Boc = CC(C)(C)OC(=O)*

Guide cases for GI50, answers given:
COMPOUND	GI50
CC(C)(C)OC(=O)NC(Cc1ccc(O)cc1)C(=O)NC(CCCCN)C(=O)O (stereo not drawn) (Boc-Tyr-Lys-OH; configuration not given here)	28.4 µM (inactive)
Cn1nnnc1SC(F)(F)c1nc2ccccc2o1	> 100 µM (inactive)
CCOC(=O)Nc1ccc2c(c1)N(C(=O)CCN(CC)CC)c1ccccc1S2	24.4 µM (inactive)

Now consider the entry below.
Give recorded GI50 with 786-0 for the following compound: CCC(C)N1CN(c2ccccc2)C2(CCN(CCCC3(c4ccc(F)cc4)OCCO3)CC2)C1=O (stereo not given)
5.53 µM (inactive)
